- Measurement description: protein stability index of a GFP-peptide fusion (yeast GPS) (PSI 1-4); higher = more stable; sorted into four equal gates, so the index is relative within each strain
- Measurement context: doa10∆
Parameter class (string): assigned from measured protein stability index. Ranges: bucket A = under 2, bucket B = from 2 up to 3, bucket C = 3 and over

>  <Residue sequence>
AVEQLAGCKIDNVDDIG [YDL088C/ASM4]

>  <Answer label>
bucket B

$$$$
>  <Residue sequence>
IMNMIENVEKKEAALKT [SMC2]

>  <Answer label>
bucket A

$$$$
>  <Residue sequence>
PSINLDPDNTSFSDENS [ESC2]

>  <Answer label>
bucket B

$$$$
>  <Residue sequence>
SLSIKLATLHYQKKQYK [RPN6]

>  <Answer label>
bucket A

$$$$
>  <Residue sequence>
IPKPRTAGKTSVKSART [SNF2]

>  <Answer label>
bucket C

$$$$
>  <Residue sequence>
IKPKIALQDKEITSVLS [SNF12]

>  <Answer label>
bucket B

$$$$
>  <Residue sequence>
FEVEMILMQQQMMARMA [SRP54]

>  <Answer label>
bucket A

$$$$
>  <Residue sequence>
KNEETPQNEKPPAYALL [RPC25]

>  <Answer label>
bucket B

$$$$
>  <Residue sequence>
MSYVVRILSTLDRELLK [RPT3]

>  <Answer label>
bucket B

$$$$
>  <Residue sequence>
YRTPGSSGVLSSNIAGT [SSN2]

>  <Answer label>
bucket C

$$$$
>  <Residue sequence>
CDLSSKFNKSKAKFTSL [YCS4]

>  <Answer label>
bucket B

$$$$
>  <Residue sequence>
DLSRIMDWLDNWGRKEH [ITC1]

>  <Answer label>
bucket C

$$$$

---

- Measurement description: protein stability index of a GFP-peptide fusion (yeast GPS) (PSI 1-4); higher = more stable; sorted into four equal gates, so the index is relative within each strain
- Measurement context: pdr5∆
Class met: protein stability index at least 3. Class not met: protein stability index below 3.

>  <Residue sequence>
ELWRKEQKLQTVLETLL [SMC3]

>  <Answer label>
met

$$$$
>  <Residue sequence>
IEDLRADINSNRLSNPQ [YOR098C/NUP1]

>  <Answer label>
not met

$$$$
>  <Residue sequence>
LYAERVQDRGLSAVAQA [RPS3]

>  <Answer label>
met

$$$$
>  <Residue sequence>
PVPSDSTRKKGGRRGRR [RPS14B]

>  <Answer label>
met

$$$$
>  <Residue sequence>
SKLLREHGYQSRGFEVM [RPB2]

>  <Answer label>
not met

$$$$
>  <Residue sequence>
EKKQKTESQDVETRVQN [DPB4]

>  <Answer label>
met

$$$$
>  <Residue sequence>
EEYVINLLKVSVDICNN [ECM29]

>  <Answer label>
not met

$$$$
>  <Residue sequence>
RPTEKPVGRELDPISLI [RPN13]

>  <Answer label>
met

$$$$
>  <Residue sequence>
SPMLKRIKITANNNMND [GRR1]

>  <Answer label>
not met

$$$$
>  <Residue sequence>
IRKIVRKDENQFSYVDS [AAR2]

>  <Answer label>
met

$$$$
>  <Residue sequence>
GGDTCSSDGALCMDSSY [POP1]

>  <Answer label>
not met

$$$$
>  <Residue sequence>
ENYEGKQDKTLQKVENQ [YIL149C/MLP2]

>  <Answer label>
met

$$$$

Measured values drawn from the supplement of paper PMC9732359 for this set.
